Form field: Kd (one value per entry).
Biological target: T1, Kaposi sarcoma herpesvirus Bcl-2 (Kaposi sarcoma herpesvirus)
T1 chain: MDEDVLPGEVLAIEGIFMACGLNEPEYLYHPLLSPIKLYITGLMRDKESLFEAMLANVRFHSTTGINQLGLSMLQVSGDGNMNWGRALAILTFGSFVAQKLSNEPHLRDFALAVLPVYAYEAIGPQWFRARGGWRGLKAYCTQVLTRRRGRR
Assay: fluorescence polarisation

Binder: {5/6‑fluorescein amidite}-RPEIWLGQSLQRLGDEINAYYAR-NH2 (designed binder) [B3, N-terminal fluorescein]
Result Qualifier: =
Kd / nM: 1.43
--
Binder: {5/6‑fluorescein amidite}-RPEIWLTQSLQRLGDEINAYYAR-NH2 (designed binder) [MS2, N-terminal fluorescein]
Result Qualifier: <
Kd / nM: 1
--
Binder: {5/6‑fluorescein amidite}-RPEIWMGQGLRRLGDEINAYYAR-NH2 (designed binder) [A12, N-terminal fluorescein]
Result Qualifier: =
Kd / nM: 4
--
Binder: {5/6‑fluorescein amidite}-RPEIWMTQGLRRLGDEINAYYAR-NH2 (designed binder) [MS1, N-terminal fluorescein]
Result Qualifier: =
Kd / nM: 2.9
